Entries and their measured pIC50 follow.
Molecular target: human TLR7 (Homo sapiens)
Sequence (Q9NYK1 27-1049): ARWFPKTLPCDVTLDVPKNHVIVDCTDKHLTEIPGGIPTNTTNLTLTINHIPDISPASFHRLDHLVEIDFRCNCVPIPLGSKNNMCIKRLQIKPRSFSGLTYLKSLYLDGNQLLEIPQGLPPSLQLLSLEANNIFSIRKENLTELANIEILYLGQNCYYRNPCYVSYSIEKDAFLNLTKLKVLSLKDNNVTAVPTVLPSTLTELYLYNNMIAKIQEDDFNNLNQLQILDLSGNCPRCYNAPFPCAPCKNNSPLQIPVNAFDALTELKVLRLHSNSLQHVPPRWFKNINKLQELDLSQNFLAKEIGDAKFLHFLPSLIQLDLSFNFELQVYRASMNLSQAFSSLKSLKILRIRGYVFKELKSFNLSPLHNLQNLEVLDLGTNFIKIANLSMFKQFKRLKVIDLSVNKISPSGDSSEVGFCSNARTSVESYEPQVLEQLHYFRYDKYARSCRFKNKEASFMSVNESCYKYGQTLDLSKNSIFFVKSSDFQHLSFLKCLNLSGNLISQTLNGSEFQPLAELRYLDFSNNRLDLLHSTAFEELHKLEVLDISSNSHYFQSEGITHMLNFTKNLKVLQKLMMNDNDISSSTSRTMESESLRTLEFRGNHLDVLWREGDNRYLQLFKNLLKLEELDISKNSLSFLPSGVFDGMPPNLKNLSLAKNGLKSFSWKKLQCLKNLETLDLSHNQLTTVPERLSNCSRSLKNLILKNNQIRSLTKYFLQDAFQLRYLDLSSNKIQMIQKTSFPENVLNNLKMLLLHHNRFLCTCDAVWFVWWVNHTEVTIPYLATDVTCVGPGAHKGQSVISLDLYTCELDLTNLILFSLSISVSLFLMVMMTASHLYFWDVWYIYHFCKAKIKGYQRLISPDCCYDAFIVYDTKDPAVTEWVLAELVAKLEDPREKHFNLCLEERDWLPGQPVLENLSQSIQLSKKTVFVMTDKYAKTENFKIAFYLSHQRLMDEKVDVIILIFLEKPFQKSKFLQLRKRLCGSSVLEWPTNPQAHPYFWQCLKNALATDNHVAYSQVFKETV
Assay: TLR7 inhibition reporter assay (HEK-Blue cells, secreted embryonic alkaline phosphatase reporter)
Conditions: HEK-Blue cells overexpressing human TLR7, stimulated with gardiquimod 7.5 μM; read-out: TLR 7 IC50
pIC50: −log10 of the molar value.
observation_type: pIC50

{"columns": ["molecule", "observation_type", "inequality_operator", "value_measured"],
 "data": [
  ["CC(C)N1C2CCC1CC(N1CCC(c3ccc4c(nc(-c5ccc(S(C)(=O)=O)cc5)n4C)c3F)CC1)C2 (single isomer, unassigned) [Example 89]", "pIC50", "<", 4.30],
  ["CS(=O)(=O)c1ccc(-c2nc3c(F)cc(C4CCN(C5CC6CCC(C5)N6C5CCC5)CC4)cc3n2C2CC2)cc1 (single isomer, unassigned) [Example 327]", "pIC50", "=", 5.70],
  ["CS(=O)(=O)c1ccc(-c2nc3ccc(C4CCN(C5CCN(CC6CC6)CC5)CC4)c(F)c3[nH]2)cc1", "pIC50", "<", 4.30],
  ["Cc1cc(-c2ccc(CN3CCC(N4CCC4)CC3)cc2)cc2c1nc(-c1ccc(S(C)(=O)=O)cc1)n2C", "pIC50", "=", 6.22],
  ["CS(=O)(=O)c1ccc(-c2nc3c(F)cc(C4CCN(C5CC6CCC(C5)N6CC5CC5)CC4)cc3n2C2CC2)cc1 (single isomer, unassigned) [Example 325]", "pIC50", "=", 5.09],
  ["COc1ccc(-c2nc3ccc(C4CCN(C5CCN(CC(C)C)CC5)CC4)cc3n2CC(F)F)cc1OC", "pIC50", "=", 5.24]
]}

----------
Target: human TLR9 (Homo sapiens, UniProt Q9NR96)
Construct: host or cells: HEK-Blue cells (HEK293-derived reporter line)
Test: TLR9 inhibition reporter assay (HEK-Blue cells, secreted embryonic alkaline phosphatase reporter)
Format: cell-based
Details: HEK-Blue cells overexpressing human TLR9, stimulated with ODN2006 5 nM; read-out: TLR 9 IC50
Collected IC50 values appear next to each entry.

{"columns": ["compound", "units_symbol", "IC50"],
 "data": [
  ["Cc1cc(-c2ccc(CN3CCC(N4CCCC4)CC3)cc2)cc2c1nc(-c1ccc(S(C)(=O)=O)cc1)n2C [Example 369]", "nM", 121],
  ["CCOP(=O)(OCC)c1ccc(-c2nc3c(C)cc(C4CCN(C5CCN(C(C)C)CC5)CC4)cc3n2C)cc1 [Example 420]", "nM", 136],
  ["Cn1c(-c2ccc(S(C)(=O)=O)cc2)nc2cc(F)c(C3CCN(C4CC5CCC(C4)N5C4CCC4)CC3)cc21 (centres unmarked) [Example 232]", "nM", 45],
  ["COc1ccc(-c2nc3ccc(C4CCN(C5CCN(C(C)C)CC5)CC4)cc3[nH]2)cc1OC [Example 2]", "nM", 123],
  ["Cc1cc(C2CCN(C3CCN(C(C)C)CC3)CC2)cc2c1nc(-c1ccc(S(N)(=O)=O)cc1)n2C [Example 112]", "nM", 127],
  ["Cn1c(-c2ccc(S(C)(=O)=O)cc2)nc2ccc(C3CCN(C4CC5CCC(C4)N5C4CCC4)CC3)c(F)c21 (single isomer, unassigned) [Example 271]", "nM", 407],
  ["COc1cc(-c2nc3c(C)cc(C4CCN(C5CC6CCC(C5)N6CC5CC5)CC4)cc3n2C)cn2ncnc12 (centres unmarked) [Example 358]", "nM", 8.1],
  ["Cc1cc(-c2ccc(CN3C[C@H]4CN(C)C[C@H]4C3)c(F)c2)cc2c1nc(-c1ccc(S(C)(=O)=O)cc1)n2C [Example 388]", "nM", 227],
  ["COc1ccc(-c2nc3cc(C4CCN(C5CCN(CC(C)C)CC5)CC4)ccc3n2C(C)C)cc1OC [Example 36]", "nM", 357],
  ["Cc1cc(C2CCN(C3CC4CCC(C3)N4C(C)C)CC2)cc2[nH]c(-c3ccc(S(C)(=O)=O)cc3)nc12 (centres unmarked) [Example 333]", "nM", 329],
  ["CN(C)C1CCN(Cc2ccc(-c3ccc4nc(-c5ccc(F)c(F)c5)n(C)c4c3)cc2)CC1 [Example 382]", "nM", 3240],
  ["CC(C)CN1C2CCC1CC(N1CCC(c3cc(F)c4c(c3)nc(-c3ccc(S(C)(=O)=O)cc3)n4C)CC1)C2 (centres unmarked) [Example 209]", "nM", 81],
  ["COc1ccc(-c2nc3cc(C4CCN(C5CCN(C(C)C)CC5)CC4)ccc3n2C(C)C)cc1OC [Example 6]", "nM", 191],
  ["Cc1cc(C2CCN(C3CCN(CC(C)C)CC3)CC2)cc2[nH]c(-c3ccc(S(C)(=O)=O)c(Br)c3)nc12 [Example 67]", "nM", 44]
]}

----------
Target: human TLR9 (Homo sapiens)
Construct: host or cells: HEK-Blue cells (HEK293-derived reporter line)
Sequence (Q9NR96 26-1032): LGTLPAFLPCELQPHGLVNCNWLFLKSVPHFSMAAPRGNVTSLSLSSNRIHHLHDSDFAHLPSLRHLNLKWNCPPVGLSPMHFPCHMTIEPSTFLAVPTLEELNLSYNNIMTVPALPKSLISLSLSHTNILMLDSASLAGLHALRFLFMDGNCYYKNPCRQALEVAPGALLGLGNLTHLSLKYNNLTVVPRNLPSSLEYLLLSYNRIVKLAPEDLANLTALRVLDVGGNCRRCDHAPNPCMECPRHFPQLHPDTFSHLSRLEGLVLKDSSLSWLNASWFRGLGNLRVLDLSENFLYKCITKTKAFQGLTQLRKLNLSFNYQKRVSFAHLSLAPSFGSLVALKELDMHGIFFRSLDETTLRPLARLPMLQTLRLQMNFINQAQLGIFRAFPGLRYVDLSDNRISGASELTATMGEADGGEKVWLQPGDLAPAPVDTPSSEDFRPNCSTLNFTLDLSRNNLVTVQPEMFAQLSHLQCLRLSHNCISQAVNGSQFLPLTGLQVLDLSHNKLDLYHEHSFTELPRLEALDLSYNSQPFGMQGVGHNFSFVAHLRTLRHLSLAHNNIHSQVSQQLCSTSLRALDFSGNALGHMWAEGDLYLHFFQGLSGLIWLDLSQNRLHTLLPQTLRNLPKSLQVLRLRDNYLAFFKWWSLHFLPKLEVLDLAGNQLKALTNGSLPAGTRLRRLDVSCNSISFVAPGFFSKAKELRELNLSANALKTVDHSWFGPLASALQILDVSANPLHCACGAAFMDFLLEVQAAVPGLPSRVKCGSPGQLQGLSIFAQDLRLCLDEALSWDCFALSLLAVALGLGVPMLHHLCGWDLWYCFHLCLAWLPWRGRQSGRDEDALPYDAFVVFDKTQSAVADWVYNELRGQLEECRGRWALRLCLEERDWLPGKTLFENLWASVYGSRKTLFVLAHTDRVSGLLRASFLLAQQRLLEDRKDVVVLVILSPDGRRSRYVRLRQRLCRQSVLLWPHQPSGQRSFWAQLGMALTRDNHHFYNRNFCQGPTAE
Test: TLR9 inhibition reporter assay (HEK-Blue cells, secreted embryonic alkaline phosphatase reporter)
Format: cell-based
Conditions: HEK-Blue cells overexpressing human TLR9, stimulated with ODN2006 5 nM; read-out: TLR 9 IC50
pIC50: −log10 of the molar value.

{"columns": ["compound", "pIC50"],
 "data": [
  ["Cc1cc(C2CCN(C3CC4CCC(C3)N4CC3CCC3)CC2)cc2c1nc(-c1ccc(S(C)(=O)=O)cc1)n2C (single isomer, unassigned) [Example 156]", 7.51],
  ["CCN(C)C1CCN(c2ccc(-c3cc(C)c4nc(-c5ccc(S(C)(=O)=O)cc5)n(C)c4c3)cc2)CC1", 6.57],
  ["Cc1noc(C)c1-c1nc2c(C)cc(C3CCN(C4CCN(CC(C)C)CC4)CC3)cc2[nH]1", 5.75],
  ["Cn1c(-c2ccc(S(C)(=O)=O)cc2)nc2c(F)cc(C3CCN(C4CC5CCC(C4)N5C4CCOCC4)CC3)cc21 (single isomer, unassigned) [Example 288]", 6.98],
  ["Cc1cc(-c2ccc(CN3CCC(N4CCC4)CC3)c(F)c2)cc2c1nc(-c1ccc(S(C)(=O)=O)cc1)n2C", 7.03],
  ["CN(C)C1CCN(Cc2ccc(-c3ccc4nc(-c5cc(F)cc(F)c5)n(C)c4c3)cc2)CC1", 6.85],
  ["Cc1cc(C2CCN(C3CC4CCC(C3)N4CC3CC3)CC2)cc2[nH]c(-c3ccc(S(C)(=O)=O)cc3)nc12 (centres unmarked) [Example 335]", 6.89],
  ["COc1ccc(-c2nc3ccc(C4CCN(C5CCN(CC(C)C)CC5)CC4)cc3n2C)cc1OC", 6.88],
  ["CC(C)CN1CCC(N2CCC(c3cc4c(cc3F)nc(-c3ccc(S(C)(=O)=O)cc3)n4C)CC2)CC1", 6.45],
  ["Cn1c(-c2ccc(S(C)(=O)=O)cc2)nc2cc(F)c(C3CCN(C4CC5CCC(C4)N5C4CCOCC4)CC3)cc21 (centres unmarked) [Example 237]", 7.06],
  ["Cn1c(-c2ccc(S(C)(=O)=O)cc2)nc2cc(F)c(C3CCN(C4CCN(C5CCOCC5)CC4)CC3)cc21", 6.05],
  ["Cc1cc(-c2ccc(N3CCC(N(C)C)CC3)cc2)cc2c1nc(-c1ccc(S(C)(=O)=O)cc1)n2C", 6.38],
  ["COc1ccc(-c2nc3c(C)cc(C4CCN(C5CC6CCC(C5)N6C5CCOCC5)CC4)cc3n2C)cc1OC (single isomer, unassigned) [Example 167]", 6.10],
  ["COc1ccc(-c2nc3c(C)cc(C4CCN(C5CCN(C6CC6)CC5)CC4)cc3[nH]2)cc1F", 6.77],
  ["CC(C)CN1CCC(N2CCC(c3ccc4c(nc(-c5ccc(S(C)(=O)=O)cc5)n4C)c3F)CC2)CC1", 6.07],
  ["COc1cc(-c2nc3c(C)cc(C4CCN(C5CC6CCC(C5)N6C(C)C)CC4)cc3[nH]2)cn2ncnc12 (centres unmarked)", 6.82],
  ["CC(C)CN1C2CCC1CC(N1CCC(c3cc(F)c4nc(-c5ccc(S(C)(=O)=O)cc5)n(C)c4c3)CC1)C2 (centres unmarked) [Example 285]", 6.61],
  ["COCCN1C2CCC1CC(N1CCC(c3cc(C)c4nc(-c5ccc(S(C)(=O)=O)cc5)n(C)c4c3)CC1)C2 (single isomer, unassigned) [Example 163]", 6.22],
  ["COc1ccc(-c2nc3c(C)cc(C4CCN(C5CC6CCC(C5)N6CC5CCC5)CC4)cc3n2C)cc1OC (single isomer, unassigned) [Example 151]", 6.76],
  ["COCCN1C2CCC1CC(N1CCC(c3ccc4c(nc(-c5ccc(S(C)(=O)=O)cc5)n4C)c3F)CC1)C2 (single isomer, unassigned) [Example 200]", 6.42],
  ["Cn1c(-c2ccc(S(C)(=O)=O)cc2)nc2c(F)c(C3CCN(C4CCN(C5CCOCC5)CC4)CC3)ccc21", 6.28],
  ["Cc1cc(C2CCN(C3CCN(CC(C)C)CC3)CC2)cc2[nH]c(-c3ccc4c(c3)OC(F)(F)O4)nc12 [Example 65, tris(2,2,2-trifluoroacetate)]", 6.53],
  ["CC(C)CN1CCC(N2CCC(c3cc(F)c4c(c3)nc(-c3ccc(S(C)(=O)=O)cc3)n4C)CC2)CC1", 7.01],
  ["Cn1c(-c2ccc(S(C)(=O)=O)cc2)nc2c(F)cc(C3CCN(C4CCCN(CC5CC5)CC4)CC3)cc21 (single isomer, unassigned) [Example 299]", 8.48],
  ["Cc1cc(C2CCN(C3CC4CCC(C3)N4C3CCC3)CC2)cc2c1nc(-c1ccc(S(C)(=O)=O)c(F)c1)n2C (single isomer, unassigned) [Example 123]", 6.05],
  ["Cn1c(-c2ccc(S(C)(=O)=O)cc2)nc2c(F)cc(C3CCN(C4CCCN(CC5CC5)CC4)CC3)cc21 (single isomer, unassigned) [Example 298]", 7.24]
]}

Each recorded value in this set is attributed to patent US12492188B2.
